test system: T-47D breast; experiment: NCI-60 one-dose screen, 48 h (100 = growth as untreated, 0 = no growth, -100 = all killed); conditions: 10 µM unless noted
This is part of a sample that, as a whole, favours compounds with a hit. Of some 83,000 tested, about 20% had one in any assay.
quantity-name: growth (%)
The answer is to be given in %; state only the numeric part.

Consider the worked cases shown below.
INSERT INTO measurements (compound, value_reported) VALUES
  ('CNCCCC12CCC(c3ccccc31)c1ccccc12', 89),
  ('Cc1nc2ccccc2c(/C=C/c2ccc(Cl)cc2)c1C(=O)/C=C/c1ccc(C(F)(F)F)cc1', -18.2),
  ('CC1=NN(c2ccc(S(=O)(=O)O)cc2)C(=O)C1N=Nc1ccc(-c2ccc(N=Nc3ccc(OS(=O)(=O)c4ccc(C)cc4)cc3)c(S(=O)(=O)O)c2)cc1 (centres undefined)', 90.3);

stdin: # get_value(readout='growth', item= `Cc1nc(/N=C(\N)NC(=O)Nc2ccccc2Cl)sc1C` )
stdout: 34.7

stdin: Next record, please: COc1ccc([C@H]2c3cc(OC)c(OC)cc3C=C(C=O)C2CO)cc1OC (some centres undefined)
stdout: 45.2

stdin: Here is the next compound: `CCN(CC)Cc1cc(Nc2c3ccc(Cl)cc3nc3ccc(OC)cc23)ccc1O`
stdout: 67.5

stdin: Entry `Cc1cc(Cl)ccc1NS(=O)(=O)c1ccc(-c2cnc(C3CC3)o2)cc1` please
stdout: 49.6

stdin: Also check `O=C(Nn1c(NCC(=O)N2c3ccccc3Sc3ccccc32)nnc1-c1ccc(O)cc1)c1ccccc1`
stdout: 98.9

stdin: And the next one, `COc1ccc(OC)c(/C=C2\Oc3cc(OCCN4CCC(Cc5ccccc5)CC4)ccc3C2=O)c1` ?
stdout: 63.1

These measurements were taken from PubChem BioAssay (NCI).
